Parameter hALR1/hALR2: see the listing below.
- assayedTarget: human aldehyde reductase (hALR1) (Homo sapiens, UniProt P14550)
- experimentDescription: inhibition of human aldehyde reductase (hALR1), methods essentially of Ishii et al.
- Type: biochemical
- conditionParameters: ratio of hALR1 IC50 to hALR2 IC50; selectivity

>>> result("O=C(O)COc1cc(F)c(-c2ccccc2)cc1C(=S)NCc1cccc([N+](=O)[O-])c1 [Example 51]")
"1,100"
>>> result("O=C(O)COc1cc(F)ccc1C(=S)NCc1cccc([N+](=O)[O-])c1 [Example 32]")
"5,800"
>>> result("O=C(O)COc1cc(F)ccc1C(=O)NCc1nc2cc(C(F)(F)F)ccc2s1 [Example 56]")
760

Proceed to the following item.
Prompt line: So what does the record say about hALR1/hALR2 for Cc1cc(C(=O)NCc2ccc(Br)cc2F)c(OCC(=O)O)cc1F [Example 45] ?
Response line: 240

----------
- assayedTarget: human aldehyde reductase (hALR1) (Homo sapiens, UniProt P14550)
- experimentDescription: inhibition of human aldehyde reductase (hALR1), methods essentially of Ishii et al.
- Assay type: biochemical
- conditionParameters: ratio of hALR1 IC50 to hALR2 IC50; selectivity
Would you please tag the item yes (1) when its hALR1/hALR2 is 500 or above, and no (0) when it is below?

>>> label("O=C(O)COc1ccc(Cl)cc1C(=O)NCc1ccc(Br)cc1F")
"no (0)"
>>> label("O=C(O)COc1cc(F)ccc1C(=O)NCc1ccc(Br)cc1F")
"no (0)"
>>> label("O=C(O)COc1cc(Cl)ccc1C(=O)NCc1ccc(Cl)c(Cl)c1")
"yes (1)"
>>> label("Cc1ccc(OCC(=O)O)c(C(=O)NCc2ccc(Br)cc2F)c1")
"no (0)"

With those in mind, consider the next compound.
Prompt line: Is hALR1/hALR2 at least 500? Consider O=C(O)COc1cc(Cl)ccc1C(=O)NCc1ccc(Br)cc1F
Response line: no (0)

----------
- assayedTarget: human aldehyde reductase (hALR1) (Homo sapiens, UniProt P14550)
- experimentDescription: inhibition of human aldehyde reductase (hALR1), methods essentially of Ishii et al.
- Assay type: biochemical
- conditionParameters: ratio of hALR1 IC50 to hALR2 IC50; selectivity
readoutName: hALR1/hALR2

>>> result("O=C(O)COc1cc(Cl)ccc1C(=O)NCc1cccc([N+](=O)[O-])c1")
">4,200"
>>> result("O=C(O)COc1cc(F)ccc1C(=O)NCc1nc2c(F)c(F)cc(F)c2s1")
"2,000"
>>> result("Cc1cc(C(=S)NCc2ccc(Br)cc2F)c(OCC(=O)O)cc1F")
"1,300"
>>> result("Cc1ccc(OCC(=O)O)c(C(=O)NCc2cccc([N+](=O)[O-])c2)c1")
">9,100"

Prompt line: Record request: hALR1/hALR2 value, item O=C(O)COc1cc(F)ccc1C(=S)NCc1ccc(Br)cc1F
Response line: 970

----------
- assayedTarget: human aldehyde reductase (hALR1) (Homo sapiens, UniProt P14550)
- Sequence (P14550 1-325): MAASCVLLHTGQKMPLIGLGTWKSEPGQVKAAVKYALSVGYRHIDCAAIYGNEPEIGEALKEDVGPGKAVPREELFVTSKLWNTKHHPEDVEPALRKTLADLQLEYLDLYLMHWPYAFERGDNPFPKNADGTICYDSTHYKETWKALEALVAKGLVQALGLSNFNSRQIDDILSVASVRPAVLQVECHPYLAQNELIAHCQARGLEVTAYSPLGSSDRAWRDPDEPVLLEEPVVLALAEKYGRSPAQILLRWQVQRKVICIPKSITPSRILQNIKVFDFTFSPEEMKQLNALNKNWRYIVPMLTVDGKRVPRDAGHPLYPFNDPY
- experimentDescription: inhibition of human aldehyde reductase (hALR1), methods essentially of Ishii et al.
- Assay type: biochemical
- conditionParameters: ratio of hALR1 IC50 to hALR2 IC50; selectivity
readoutName: hALR1/hALR2

Some solved entries appear below for comparison.
>>> result("O=C(O)COc1cc(F)ccc1C(=S)NCc1nc2c(F)c(F)cc(F)c2s1 [Example 55]")
"1,100"
>>> result("O=C(O)COc1cc(F)c(-c2ccccc2)cc1C(=O)NCc1cccc([N+](=O)[O-])c1 [Example 50]")
"2,000"
>>> result("O=C(O)COc1cc(F)ccc1C(=O)NCc1cccc([N+](=O)[O-])c1 [Example 27]")
"4,300"

Prompt line: Look up hALR1/hALR2 for this compound: O=C(O)COc1cc(F)c(Br)cc1C(=O)NCc1cccc([N+](=O)[O-])c1 [Example 49]
Response line: 7,300
